Hey, just so you know, these numbers are from patent US11466008B2.

Assay: Dissolution study in FeSSIF at ambient temperature (HPLC; XRPD of remaining solids)
Conditions: FeSSIF (fed state simulated intestinal fluid), fessif, thermodynamic from solid
measure: solubility at 24 h

Data request: Annotate the molecule O=c1ncn2nc(Sc3ccc(F)cc3F)ccc2c1-c1c(Cl)cccc1Cl [VX-745] with its measured solubility at 24 h.
Data returned: 14 µg/mL

----------
Test: Dissolution study in FaSSIF at ambient temperature (HPLC; XRPD of remaining solids)
Conditions: FaSSIF (fasted state simulated intestinal fluid), fassif, thermodynamic from solid
measure: solubility at 24 h (µg/mL)
One number for each entry, in µg/mL.

Data request: Annotate the compound `O=c1ncn2nc(Sc3ccc(F)cc3F)ccc2c1-c1c(Cl)cccc1Cl` with its measured solubility at 24 h.
Data returned: 9.07

----------
Assay: Dissolution study in water at ambient temperature (HPLC)
Type: physicochemical
Conditions: thermodynamic from solid, 3 hrs
Description: HPLC analyses were carried out on an Agilent 1100 series instrument equipped with a UV detector using the following materials and operating parameters: Dissolution studies were carried out for VX-745 at ambient temperature using water, as described by the HPLC Analysis protocol described above. Dissolution studies were carried out for the CC-6 at ambient temperature using water, as described by the HPLC Analysis protocol described above. […]
measure: solubility at 3 h (µg/mL)
Give bare numbers, in µg/mL.

Data request: Annotate the molecule O=c1ncn2nc(Sc3ccc(F)cc3F)ccc2c1-c1c(Cl)cccc1Cl [VX-745] with its measured solubility at 3 h.
Data returned: 6.32

----------
Assay: Dissolution study in water at ambient temperature (HPLC)
Format: physicochemical
Conditions: thermodynamic from solid, 1 hr
measure: solubility at 1 h
Express your answer as a number followed by its unit.

Data request: Annotate the molecule `O=c1ncn2nc(Sc3ccc(F)cc3F)ccc2c1-c1c(Cl)cccc1Cl` with its measured solubility at 1 h.
Data returned: 6.59 µg/mL

----------
Assay: Dissolution study in water at ambient temperature (HPLC)
Type: physicochemical
Conditions: thermodynamic from solid, 4 hrs
measure: solubility at 4 h (µg/mL)
Give bare numbers, in µg/mL.

Data request: Annotate the molecule O=c1ncn2nc(Sc3ccc(F)cc3F)ccc2c1-c1c(Cl)cccc1Cl [VX-745] with its measured solubility at 4 h.
Data returned: 11.3

----------
Test: Estimated solubility of VX-745 in solvents (solvent aliquot addition, visual inspection)
Assay type: physicochemical
Settings: organic solvent or mixture, thermodynamic from solid, solvent isopropyl alcohol
measure: Solubility (µg/mL)
Numbers only, in µg/mL.

Data request: Annotate the compound O=c1ncn2nc(Sc3ccc(F)cc3F)ccc2c1-c1c(Cl)cccc1Cl [VX-745] with its measured Solubility.
Data returned: 1000

----------
Assay: Dissolution study in water at ambient temperature (HPLC)
Type: physicochemical
Details: thermodynamic from solid, 25 mins
measure: solubility at 25 min (µg/mL)
Numbers only, in µg/mL.

Data request: Annotate the molecule `O=c1ncn2nc(Sc3ccc(F)cc3F)ccc2c1-c1c(Cl)cccc1Cl` with its measured solubility at 25 min.
Data returned: 15.5

----------
Assay: Dissolution study in water at ambient temperature (HPLC)
Assay type: physicochemical
Settings: thermodynamic from solid, 10 mins
measure: solubility at 10 min (mg/mL)
Answers are plain numbers, in mg/mL.

Data request: Annotate the molecule `O=c1ncn2nc(Sc3ccc(F)cc3F)ccc2c1-c1c(Cl)cccc1Cl` with its measured solubility at 10 min.
Data returned: 0.0149

----------
Assay: Dissolution study in FaSSIF at ambient temperature (HPLC; XRPD of remaining solids)
Conditions: FaSSIF (fasted state simulated intestinal fluid), fassif, thermodynamic from solid
measure: solubility at 5 min (µg/mL)
One number for each entry, in µg/mL.

Data request: Annotate the compound `O=c1ncn2nc(Sc3ccc(F)cc3F)ccc2c1-c1c(Cl)cccc1Cl` with its measured solubility at 5 min.
Data returned: 17.8

----------
Assay: Estimated solubility of VX-745 in solvents (solvent aliquot addition, visual inspection)
Assay type: physicochemical
Conditions: organic solvent or mixture, thermodynamic from solid, solvent tetrahydrofuran (THF)
measure: Solubility (µg/mL)
Answers are plain numbers, in µg/mL.

Data request: Annotate the compound `O=c1ncn2nc(Sc3ccc(F)cc3F)ccc2c1-c1c(Cl)cccc1Cl` with its measured Solubility.
Data returned: 4000

----------
Assay: Dissolution study in water at ambient temperature (HPLC)
Type: physicochemical
Details: thermodynamic from solid, 15 mins
measure: solubility at 15 min (µg/mL)
Give bare numbers, in µg/mL.

Data request: Annotate the compound O=c1ncn2nc(Sc3ccc(F)cc3F)ccc2c1-c1c(Cl)cccc1Cl [VX-745] with its measured solubility at 15 min.
Data returned: 17.8

----------
Test: Dissolution study in water at ambient temperature (HPLC)
Assay type: physicochemical
Settings: thermodynamic from solid, 2 hrs
measure: solubility at 2 h (µg/mL)
One number for each entry, in µg/mL.

Data request: Annotate the molecule O=c1ncn2nc(Sc3ccc(F)cc3F)ccc2c1-c1c(Cl)cccc1Cl [VX-745] with its measured solubility at 2 h.
Data returned: 5.67

----------
Experiment: Estimated solubility of VX-745 in solvents (solvent aliquot addition, visual inspection)
Type: physicochemical
Settings: organic solvent or mixture, thermodynamic from solid, solvent ethyl acetate
measure: Solubility

Data request: Annotate the compound O=c1ncn2nc(Sc3ccc(F)cc3F)ccc2c1-c1c(Cl)cccc1Cl [VX-745] with its measured Solubility.
Data returned: < 1000 µg/mL

----------
Test: Dissolution study in FeSSIF at ambient temperature (HPLC; XRPD of remaining solids)
Conditions: FeSSIF (fed state simulated intestinal fluid), fessif, thermodynamic from solid
measure: solubility at 3 h (µg/mL)
Answers are plain numbers, in µg/mL.

Data request: Annotate the compound `O=c1ncn2nc(Sc3ccc(F)cc3F)ccc2c1-c1c(Cl)cccc1Cl` with its measured solubility at 3 h.
Data returned: 21.4
